metric: melting point

In the examples that follow, each entry is paired with its recorded melting point.
N[C@]1(C(=O)O)[C@H]2[C@@H](C[C@H]1SC(c1ccc(F)cc1)c1ccc(F)cc1)[C@]2(F)C(=O)O | > 243 °C
N[C@]1(C(=O)O)[C@H]2[C@@H](C[C@H]1SCc1ccccc1-c1ccccc1)[C@]2(F)C(=O)O | > 230 °C
N[C@]1(C(=O)O)[C@H]2[C@@H](C[C@H]1Sc1ccc(Cl)c(Cl)c1)[C@]2(F)C(=O)O | > 235 °C
N[C@]1(C(=O)O)[C@H]2[C@@H](C[C@H]1SCc1cccs1)[C@]2(F)C(=O)O | > 230 °C
N[C@]1(C(=O)O)[C@H]2[C@@H](C[C@H]1SCc1ccc(Cl)c(Cl)c1)[C@]2(F)C(=O)O | > 220 °C
CC(C)(C)c1ccc(CS[C@@H]2C[C@@H]3[C@H]([C@]2(N)C(=O)O)[C@@]3(F)C(=O)O)cc1 | > 271 °C

Dear colleague, please send me the reported melting point for CC(S[C@@H]1C[C@@H]2[C@H]([C@]1(N)C(=O)O)[C@@]2(F)C(=O)O)c1ccccc1 (stereo partly drawn) when you can.
> 307 °C

Tell me melting point reported for "COc1ccc(CS[C@@H]2C[C@@H]3[C@H]([C@]2(N)C(=O)O)[C@@]3(F)C(=O)O)cc1"
> 240 °C

Give the value of melting point reported for the following: "N[C@@H]1C[C@@H]2[C@H]([C@]1(N)C(=O)O)[C@@]2(F)C(=O)O"
> 256 °C

Quick one: give measured melting point for "N[C@]1(C(=O)O)[C@H]2[C@@H](C[C@H]1SCc1ccc(F)cc1)[C@]2(F)C(=O)O"
> 243 °C

Name the recorded melting point of the item "N[C@]1(C(=O)O)[C@H]2[C@@H](C[C@H]1SCc1cccc(C(F)(F)F)c1)[C@]2(F)C(=O)O" in your answer.
> 271 °C

Return melting point (reported value) for this compound: "N[C@]1(C(=O)O)[C@H]2[C@@H](C[C@H]1SCc1ccc3ccccc3c1Br)[C@]2(F)C(=O)O"
> 280 °C

Kindly indicate its recorded melting point. Item: "N[C@]1(C(=O)O)[C@@H]2[C@@H](C[C@H]1SCc1ccc(Cl)c(Cl)c1)[C@H]2C(=O)O"
> 289 °C

Name the recorded melting point of the item "N[C@]1(C(=O)O)[C@H]2[C@@H](C[C@H]1NCc1ccc(Cl)c(Cl)c1)[C@]2(F)C(=O)O" in your answer.
> 190 °C

Fill in melting point for record "N[C@]1(C(=O)O)[C@H]2[C@@H](C[C@H]1SCc1c(F)ccc(Cl)c1F)[C@]2(F)C(=O)O"
> 234 °C

The values you see were collected from patent US7381746B2.
